subject-of-test: MMP9 (Homo sapiens, UniProt P14780)
Sequence (P14780 94-707): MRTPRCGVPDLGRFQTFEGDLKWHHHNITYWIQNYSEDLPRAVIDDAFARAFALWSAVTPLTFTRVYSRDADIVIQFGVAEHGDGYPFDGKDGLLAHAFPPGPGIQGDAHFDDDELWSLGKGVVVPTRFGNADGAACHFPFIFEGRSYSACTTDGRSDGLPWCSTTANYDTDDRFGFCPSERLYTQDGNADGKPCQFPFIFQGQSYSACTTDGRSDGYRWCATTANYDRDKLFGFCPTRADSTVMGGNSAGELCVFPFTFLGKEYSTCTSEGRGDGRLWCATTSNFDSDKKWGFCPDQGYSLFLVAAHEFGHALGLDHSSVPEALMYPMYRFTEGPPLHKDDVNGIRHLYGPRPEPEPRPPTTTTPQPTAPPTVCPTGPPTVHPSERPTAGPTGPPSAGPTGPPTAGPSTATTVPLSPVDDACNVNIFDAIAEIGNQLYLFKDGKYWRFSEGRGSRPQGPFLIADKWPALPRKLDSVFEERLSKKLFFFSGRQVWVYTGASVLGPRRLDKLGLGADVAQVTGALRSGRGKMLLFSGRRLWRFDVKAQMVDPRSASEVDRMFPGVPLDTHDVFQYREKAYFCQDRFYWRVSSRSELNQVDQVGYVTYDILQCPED
assay-name: Fluorometric enzyme inhibition assay with fluorogenic substrate Mca-Lys-Pro-Leu-Gly-Leu-Dpa-Ala-Arg-NH2 (MMP9)
Format: biochemical
condition-description: 10 μM compound; enzyme 1 nM; mean of three assays
measurement-name: inhibition at 10 µM (%)

> print(dat)
                            smiles.notation  endpoint.result
1  N=C(N)NCCCOc1ccc(C[C@H](NS(=O)(=O)c2ccc(-c3ccccc3)cc2)C(=O)O)cc1                0
2  N=C(N)NCCCOc1ccc(C[C@H](NS(=O)(=O)c2ccccc2)C(=O)NO)cc1               42
3  NCCCOc1ccc(C[C@H](NS(=O)(=O)c2ccc(-c3ccccc3)cc2)C(=O)O)cc1                0
4  N=C(N)NCCCOc1ccc(C[C@H](NS(=O)(=O)c2ccccc2)C(=O)O)cc1                0
5  NCCCOc1ccc(C[C@H](NS(=O)(=O)c2ccc([N+](=O)[O-])cc2)C(=O)O)cc1                0
6  O=C(NO)[C@H](Cc1ccc(O)cc1)NS(=O)(=O)c1ccc(-c2ccccc2)cc1               63
7  NCCCOc1ccc(C[C@H](NS(=O)(=O)c2ccc(-c3ccccc3)cc2)C(=O)NO)cc1              100

----------
Entries and their inhibition at 50 µM values follow.
subject-of-test: MMP2 (Homo sapiens)
Sequence (P08253 110-660): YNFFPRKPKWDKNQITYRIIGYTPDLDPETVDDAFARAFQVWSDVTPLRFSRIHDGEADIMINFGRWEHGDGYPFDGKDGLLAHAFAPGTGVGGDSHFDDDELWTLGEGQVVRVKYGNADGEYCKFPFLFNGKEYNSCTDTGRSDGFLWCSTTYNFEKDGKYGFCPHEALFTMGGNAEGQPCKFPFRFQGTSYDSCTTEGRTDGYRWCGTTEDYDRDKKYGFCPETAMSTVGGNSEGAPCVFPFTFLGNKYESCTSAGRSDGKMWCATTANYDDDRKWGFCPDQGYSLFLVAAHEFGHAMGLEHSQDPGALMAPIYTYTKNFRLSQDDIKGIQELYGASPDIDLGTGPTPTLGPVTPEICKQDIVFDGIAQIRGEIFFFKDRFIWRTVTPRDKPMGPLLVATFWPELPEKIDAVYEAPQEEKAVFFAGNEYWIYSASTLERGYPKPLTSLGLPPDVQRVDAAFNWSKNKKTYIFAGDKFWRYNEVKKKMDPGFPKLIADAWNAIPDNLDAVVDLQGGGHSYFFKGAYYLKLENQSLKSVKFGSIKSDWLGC
assay-name: Fluorometric enzyme inhibition assay with fluorogenic substrate Mca-Lys-Pro-Leu-Gly-Leu-Dpa-Ala-Arg-NH2 (MMP2)
Format: biochemical
condition-description: 50 μM compound; enzyme 1 nM; mean of three assays
measurement-name: inhibition at 50 µM (%)

> print(dat)
                            smiles.notation      subject.of.test  endpoint.result
1  N=C(N)NCCCOc1ccc(C[C@H](NS(=O)(=O)c2ccccc2)C(=O)O)cc1  MMP2 (Homo sapiens)               21
2  NCCCOc1ccc(C[C@H](NS(=O)(=O)c2ccc(-c3ccccc3)cc2)C(=O)O)cc1  MMP2 (Homo sapiens)               79
3  N=C(N)NCCCOc1ccc(C[C@H](NS(=O)(=O)c2ccccc2)C(=O)NO)cc1  MMP2 (Homo sapiens)               75
4  NCCCOc1ccc(C[C@H](NS(=O)(=O)c2ccc([N+](=O)[O-])cc2)C(=O)O)cc1  MMP2 (Homo sapiens)                0

----------
Test system: M21 human melanoma cells
assay-name: Inhibition of integrin-mediated M21 cell adhesion to vitronectin
Assay type: cell-based
condition-description: Homo sapiens, M21; at 30 μM; 2 mM MnCl2; relative to vehicle (PBS)
Rule: inhibition at 30 µM of 70% or more gives TRUE; anything lower gives FALSE.

> print(dat)
                            smiles.notation  answer.label
1  NCCCOc1ccc(C[C@H](NS(=O)(=O)c2ccc(-c3ccccc3)cc2)C(=O)NO)cc1         FALSE
2  N=C(N)NCCCOc1ccc(C[C@H](NS(=O)(=O)c2ccc(-c3ccccc3)cc2)C(=O)O)cc1          TRUE
3  O=C(NO)[C@H](Cc1ccc(O)cc1)NS(=O)(=O)c1ccc(-c2ccccc2)cc1         FALSE
4  N=C(N)NCCCOc1ccc(C[C@H](NS(=O)(=O)c2ccccc2)C(=O)O)cc1          TRUE
5  N=C(N)NCCCOc1ccc(C[C@H](NS(=O)(=O)c2ccccc2)C(=O)NO)cc1          TRUE
